assay: in vitro; conditions: human, Caco-2, […]
readout.label: Papp A→B (nm/s)
Number in nm/s, nothing else.

Q: Quick one: Papp A→B for CCN(CC)CC.Nc1ncnc2c1ncn2[C@@H]1O[C@H](COS(=O)(=O)NC(=O)c2ccccc2O)[C@@H](O)[C@H]1O [Compound 1, 5′-O-[N-(salicyl)sulfamoyl]adenosine] ?
A: 12

---

experiment: Estimated pKa of the acyl-sulfonyl linker; format: physicochemical
Assign pKa to each entry below.

Q: Quick one: pKa for CCN(CC)CC.Nc1ncnc2c1ncn2[C@@H]1O[C@H](COS(=O)(=O)NC(=O)c2ccccc2O)[C@@H](O)[C@H]1O [Compound 1, 5′-O-[N-(salicyl)sulfamoyl]adenosine] ?
A: ~3

Q: Quick one: pKa for CCN(CC)CC.Nc1ncnc2c1ncn2[C@@H]1O[C@H](CNS(=O)(=O)NC(=O)c2ccccc2O)[C@@H](O)[C@H]1O [Compound 4] ?
A: ~5

Q: Quick one: pKa for CCN(CC)CC.Nc1ccc(C(=O)NS(=O)(=O)NC[C@H]2O[C@@H](n3cnc4c(N)ncnc43)[C@H](O)[C@@H]2O)c(O)c1 [Compound 5] ?
A: ~6
